B1: library; numbered along this chain (parent)
chain: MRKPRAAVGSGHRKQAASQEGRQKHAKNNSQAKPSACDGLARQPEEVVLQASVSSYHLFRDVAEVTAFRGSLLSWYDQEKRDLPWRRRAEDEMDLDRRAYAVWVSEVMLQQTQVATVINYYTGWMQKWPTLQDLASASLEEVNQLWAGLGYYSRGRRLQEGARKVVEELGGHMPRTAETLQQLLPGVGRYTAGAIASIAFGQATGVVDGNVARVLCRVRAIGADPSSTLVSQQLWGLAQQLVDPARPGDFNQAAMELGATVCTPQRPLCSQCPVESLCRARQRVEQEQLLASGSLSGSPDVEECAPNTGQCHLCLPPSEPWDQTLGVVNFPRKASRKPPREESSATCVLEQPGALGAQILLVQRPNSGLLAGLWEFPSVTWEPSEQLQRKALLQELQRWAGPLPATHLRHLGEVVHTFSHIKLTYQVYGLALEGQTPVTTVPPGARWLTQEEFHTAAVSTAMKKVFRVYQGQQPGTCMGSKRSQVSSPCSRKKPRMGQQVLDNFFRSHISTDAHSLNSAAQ

- Variants of: B1
- Protocol notes: 8OG:A repair function score (normalized; synonymous = 0, nonsense = -1) (normalized log-likelihood score); higher = more repair activity (WT-like);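 note: cells sorted at 72 h after reporter transfection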
- Condition parameters: with 8OG:A DNA repair reporter (GFP) in HEK-293 MUTYH KO cells
Property label: 8OG:A repair function score
Number only, no unit.

Examples with answers:
Q: State, in one line, measured 8OG:A repair function score of V242D
Ans: -0.978

Q: State, in one line, measured 8OG:A repair function score of T130K
Ans: -0.0846

Q: State, in one line, measured 8OG:A repair function score of S197V
Ans: -0.973

***
Q: State, in one line, measured 8OG:A repair function score of A238D
Ans: -0.714

Q: State, in one line, measured 8OG:A repair function score of R219W
Ans: -0.783

Recorded values, source the supplement of paper PMC11908140.
